These measurements were taken from the supplement of paper PMC10567573.

B1: PPEF2 (parent)
chain: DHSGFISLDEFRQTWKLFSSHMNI

- Variants of: B1
- testDetails: protein stability index of a GFP-peptide fusion (GPS, HEK-293T) (PSI 1-6); higher = more stable;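 also: lentivirally expressed fusions sorted by FACS into six bins by GFP to DsRed ratio, PSI derived from sequencing read proportions per bin multiplied by bin number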
- conditionContext: c terminus: a fixed tail appended
protein stability index for assorted variants
testReadout: protein stability index

1) DHSGFISLDGFRQTWKLFSSHMNI [E10G] :: 1.26
2) DHSGFISLDEFRQTWKLFSSHDNI [M22D] :: 2.41
3) DHSGFISLDEFRQTWKLFSMHMNI [S20M] :: 2.81
4) DHSGFISLDEFRQTWKLFSSWMNI [H21W] :: 2.02
5) DHSGFISLSEFRQTWKLFSSHMNI [D9S] :: 1.84
6) DHSGFISLDEFRQTWKLFSSHHNI [M22H] :: 1.61
7) DHSGFISLDEFRQCWKLFSSHMNI [T14C] :: 2.88
8) DHSGFISLDEFRQTWKLFSSRMNI [H21R] :: 2.23
9) DHSGFISLDEFRQTWKLFFSHMNI [S19F] :: 2.32
10) DHQGFISLDEFRQTWKLFSSHMNI [S3Q] :: 1.85
11) DHSGFISLDEFRQTWKLFSSHMNE [I24E] :: 1.99
12) DHSGFISLDEFRQTWKLFNSHMNI [S19N] :: 1.07
13) DHSGFIQLDEFRQTWKLFSSHMNI [S7Q] :: 1.79
14) DHSGFFSLDEFRQTWKLFSSHMNI [I6F] :: 1.03
15) DHSGFISLDEFSQTWKLFSSHMNI [R12S] :: 2.04
16) DWSGFISLDEFRQTWKLFSSHMNI [H2W] :: 1.82
17) DHLGFISLDEFRQTWKLFSSHMNI [S3L] :: 2.07
18) DHSGFISLDEFRQTWGLFSSHMNI [K16G] :: 1.32
19) DHSGFISLDEFRITWKLFSSHMNI [Q13I] :: 3.27
20) DVSGFISLDEFRQTWKLFSSHMNI [H2V] :: 1.45
21) DHSGGISLDEFRQTWKLFSSHMNI [F5G] :: 2.5
22) QHSGFISLDEFRQTWKLFSSHMNI [D1Q] :: 2.4
23) DHSGFIYLDEFRQTWKLFSSHMNI [S7Y] :: 1.97
24) DHSGFISLDEFRATWKLFSSHMNI [Q13A] :: 1.73
25) DGSGFISLDEFRQTWKLFSSHMNI [H2G] :: 1.43
